Test system: K562
Assay: NCI tumour cell line growth inhibition, 48 h
The source made the active and inactive calls. Cut-off read from the data, not from the text of the source: active = GI50 up to about 1.1 µM and inactive = higher.
Response enum: active, inactive

Check out these entries, answers already filled in.
molecule	class
CC(=O)CC(=O)CCC(=O)Nc1cccc(C(F)(F)F)c1	inactive
O=NN(CCCl)C(=O)NCCCl	inactive
CC1(C)C2CCC1(C)C(NC(=O)COCCOCC(N)=O)C2 (centres undefined)	inactive
N[C@H]1CCC[C@@H](O)C1O (some centres undefined)	inactive
C#CC1(O)c2ccccc2C(=O)c2ccccc21	inactive

Request: Identify the outcome logged in this assay for the molecule shown: COc1cccc(N2C(=O)/C(=C\c3ccccc3)SC2c2cc(OC)c(OC)c(OC)c2)c1 (centres undefined)
Response: inactive

Request: Identify the outcome logged in this assay for the molecule shown: `CCCCCCCCCCCC(=O)OC[C@@H](C[As](=O)(O)O)OC(=O)CCCCCCCCCCC`
Response: inactive

Request: Identify the outcome logged in this assay for the molecule shown: `CC(C)=CCC\C(C)=C/C=C/C(C)=C\C=C\C(C)=C/C=C/C=C(C)\C=C\C=C(C)/C=C/C=C(/C)CCC=C(C)C`
Response: inactive

Request: Identify the outcome logged in this assay for the molecule shown: `O=C(c1ccccc1)N1C(=S)NC(=N/c2ccccc2)/C1=N\c1ccccc1`
Response: inactive

Request: Identify the outcome logged in this assay for the molecule shown: Nc1ncnc2c1ncn2C1OC(CSCc2ccc(Cl)cc2)C(O)C1O (centres undefined)
Response: inactive

###

System: HOP-62
Assay: NCI tumour cell line growth inhibition, 48 h
Active and inactive are the calls of the source. No stated cut-off is given here; in the data, active = GI50 up to about 1.1 µM and inactive = higher.
quantityMeasured: GI50

Solved entries (count: 4):
>>> print(df.to_string())
                                   compound  measuredon          assayresult
0  CC(=O)c1ccc(NC(=O)C(=O)C(C(=O)/C=C/c2ccccc2)C2OC(=O)c3ccccc32)cc1 (stereo not given)      HOP-62  > 100 µM (inactive)
1  CN(CCCNC(=O)c1cn(C)c2c1ccc1ccccc12)CCCNC(=O)c1cn(C)c2c1ccc1ccccc12      HOP-62   1.61 µM (inactive)
2  C/C(CC(=O)Nc1cccc(Cl)c1C)=N\NC(=O)c1ccncc1      HOP-62  > 100 µM (inactive)
3  BrC1=CN2C[n+]3cc(Br)c4ccccc4c3N=C2c2ccccc21      HOP-62    1.4 µM (inactive)

Here's the next entry for you.
Request: For `CN(C)Cc1cc(/N=N/c2ccc(Cl)cc2)cc(CN(C)C)c1O` , what is its reported GI50?
Response: 2.58 µM (inactive)

###

Tested on: NCI-H460
Assay: NCI tumour cell line growth inhibition, 48 h
Activity calls are given as the source filed them. Cut-off read from the data, not from the text of the source: active = GI50 up to about 1.1 µM and inactive = higher.
Response enum: 1 = active, -1 = inactive

In [3]: df
Out[3]:
                                   compound  class
0  COc1ccc(N[C@H](C[S+]([O-])c2ccc(C)cc2)C(F)(F)F)cc1 (stereo partly specified)     -1
1     CCOC(=O)C1(C(=O)OCC)OC(=O)NC2=C1CCCC2     -1
2              COc1ccc2c(c1)C(=O)c1ccccc1C2     -1
3  Nc1ncnc2c1ncn2C1OC(CSCc2ccc(Cl)cc2)C(O)C1O (stereo unspecified)     -1
4  COc1ccccc1NC(=S)N/N=C(/c1ccccc1)c1ccccn1      1

Request: Identify the outcome logged in this assay for the compound shown: `CCCC(CCC(=O)O)(CCC(=O)O)[N+](=O)[O-]`
Response: -1

Request: Identify the outcome logged in this assay for the compound shown: `CCCCOc1ccc(NC(=N)Nc2ccc(Cl)cc2)cc1`
Response: -1

Request: Identify the outcome logged in this assay for the compound shown: CC(=O)N(CCc1ccccc1)C(C#N)c1ccc(OCCCCCCCCCCOc2ccc(C(C#N)N(CCc3ccccc3)C(C)=O)cc2)cc1 (stereo unspecified)
Response: -1

Request: Identify the outcome logged in this assay for the compound shown: `O=Cc1ccc2c(c1-c1c(C=O)ccc3c1OCO3)OCO2`
Response: -1

Request: Identify the outcome logged in this assay for the compound shown: `CC(C)(C)OC(=O)N(CCCCNC(=O)c1ccccc1)CCCNC(=O)c1ccccc1`
Response: -1

Request: Identify the outcome logged in this assay for the compound shown: `CN(C=O)/C=C/c1cc(O)ccc1O`
Response: -1
